Biological target: T1, human CD4 on cells (SKW3 cells; human PBMCs) (human, UniProt P01730 26-458)
T1 construct: whole, on cells; SKW3 CD4 knockout cells served as the negative cell line; also called hCD4
Experiment: FACS confirmation, supernatant on SKW3 WT cells, anti-human kappa FITC; background gMFI 2500
Kindly state SKW3 WT anti-hu Kappa FITC, gMFI for each of the entries shown.
Report the figure along with its unit, number first.

The recorded SKW3 WT anti-hu Kappa FITC, gMFI for entry 75110_13C13A (antibody, IgG1, V domains shown, Tested as non-clonal AlivaMab Mouse Kappa hybridoma supernatant: human variable domains and human kappa, mouse Fc) VH: QVQLQQWGAGLLKPSETLSLTCAVSGGSFSGYYWSWIRQPPGKGLEWIGEINHSGSTNCNPSLKSRVTISVDTSKNQFSLKLSSVTAADTAMYYCARVLNFFDYWGQGTLVTVSS VL: DIQMTQTPSSVSASVGDRVTITCRASPGISNWLAWYQQKPGKAPELLIYAASSLQSGVPSRFSGSGSGTDFTLTISSLQPEDFATYFCQQANSFPLTFGGGTKVESK equals 7240 gMFI

The recorded SKW3 WT anti-hu Kappa FITC, gMFI for entry 75110_02I16A (antibody, IgG1, V domains shown, Tested as non-clonal AlivaMab Mouse Kappa hybridoma supernatant: human variable domains and human kappa, mouse Fc; also called 75110_02116A) VH: QVQLQQWGAGLLKPSETLSLTCDVYGGSFSGYYWTWIRQPPGKGLEWIGEINHSGTTNSNPSLKSRVTISVDTSKSQFSLRLSSVTAADTAVYFCTRELNWFDPWGQGTLVTVSS VL: DIQMTQSPSSVSASVGDRVTITCRASQDIANWLAWYQQKPGKAPQLLIYAASSLLGGVPSRFSGSGSGADFTLTISSLHPEDFATYYCQQANSFPYTFGQGTKLEIK equals 5740 gMFI
